Origin of the recorded values: ChEMBL document CHEMBL1201862

system: K562; experiment: NCI tumour cell line growth inhibition, 48 h
Calls of active or inactive are those of the source. Rule as the data show it: active = GI50 up to about 1.1 µM and inactive = higher.
Outcome codes: true for active, false for inactive

                                   molecule   tgt  class
0  C=CC1=C(C)c2cc3[nH]c(c4c5nc(cc6[nH]c(cc1n2)c(C)c6CC)C(C)=C5C(=O)[C@@H]4C(=O)OC)[C@@H](CCC(=O)O)[C@@H]3C  K562  false
1  COc1cc(/C=C/c2ccc(OC)c(OC)c2)cc(OC)c1 [(E)-3,4,3',5'-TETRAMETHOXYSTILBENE]  K562  false
2  COc1ccc(/C=C(\C#N)c2nc3ccccc3c(=O)[nH]2)cc1  K562  false
3  C[C@]12CCC(=O)C=C1CC[C@@H]1[C@@H]2CC[C@]2(C)C(=O)[C@H](n3ccnc3)C[C@@H]12  K562  false
4  Cc1cnc2c(c1)C(=O)C1=C(C2=O)C2OC(=O)CC2OC1(C)C (centres undefined)  K562   true
5  C/C=C/C/C=C/CCC(=O)C1OC1C(N)=O (centres undefined)  K562  false
6  Cc1ccc(NC(=O)CC(=O)N2N=C(N(CCC#N)c3cccc(C)c3)CC2c2ccccc2)cc1 (centres undefined)  K562  false
7   CCOC(=O)c1nc2ccccc2nc1Nc1ccc(Cl)c(Cl)c1  K562  false
8  COc1ccc(Oc2cnn(C(Br)(Br)C(C)=O)c(=O)c2Br)cc1  K562  false

====

tested on: OVCAR-8; test: NCI tumour cell line growth inhibition, 48 h
Activity calls are given as the source filed them. Rule as the data show it: active = GI50 up to about 1.1 µM and inactive = higher.
Outcome codes: active, inactive

In [3]: df
Out[3]:
                                    compound     class
 0  O=C(CSc1nnc(SCC(=O)NN=C2CCCCC2)s1)NN=C1CCCCC1  inactive
 1  O=C1C2C3C=CC(C2C(=O)N1CN1CCOCC1)C1C2C(=O)N(CN4CCOCC4)C(=O)C2C31 (stereo unspecified)  inactive
 2  CC(C)=CC1C(COC(=O)c2ccccc2Cl)C1(C)C (stereo unspecified)  inactive
 3       O=C1Nc2ccc(Br)cc2/C1=N/c1ccc(Cl)cc1  inactive
 4  COc1cc(C)c(C)c(OC(=O)c2c(C)c(C)c(OC)c(C)c2OC)c1C  inactive
 5  O=[N+]([O-])/C(C(Cl)=C(Cl)Cl)=C1\Nc2ccccc2O1  inactive
 6  O=C(NCCc1ccccc1)c1cc(/C=C/c2cc(O)ccc2O)ccc1O  inactive
 7                        NNc1nncc2[nH]cnc12  inactive
 8  COC(=O)c1c(C)cccc1C1CN=NC12Cc1cc(C)c(C)cc1C2=O (stereo unspecified)  inactive
 9  C=CCC12CC(=O)CCC1c1ccc(OC)cc1C2=O (stereo unspecified)  inactive
10       COc1cc(/C=C\c2ccc(SC)cc2)cc(OC)c1OC    active

====

system: MDA-N; experiment: NCI tumour cell line growth inhibition, 48 h
Activity calls are given as the source filed them. No stated cut-off is given here; in the data, active = GI50 up to about 1.1 µM and inactive = higher.
outcome measure: GI50

In [3]: df
Out[3]:
                                   molecule             measured
0  CC12CCC(=O)C=C1CCC1C2C(O)CC2(C)C(c3csc(N)n3)CCC12.O=S(=O)(O)c1ccc(Br)cc1 (stereo unspecified)  > 100 µM (inactive)
1  CCOc1ccc2nc(NC(=O)C(=O)C(c3cnc4ccccc4n3)[N+](=O)[O-])sc2c1 (stereo unspecified)  > 100 µM (inactive)
2  O=C1Nc2ccccc2/C1=c1\[nH]c(=O)/c(=C\c2ccc(OCc3ccccc3)cn2)[nH]c1=O   83.2 µM (inactive)
3  COc1cc(C(c2ccc3c(c2)OCO3)C2SCCCS2)cc(OC)c1OC (stereo unspecified)    0.372 µM (active)
4  O=C1NC(=O)C23C(=O)NC(=O)C12C1C=CC3CC1 (stereo unspecified)   > 10 µM (inactive)
5                       Nc1cc(F)ccc1CC(=O)O  > 100 µM (inactive)

====

system: CCRF-CEM; assay: NCI tumour cell line growth inhibition, 48 h
Activity calls are given as the source filed them. No stated cut-off is given here; in the data, active = GI50 up to about 1.1 µM and inactive = higher. Where a SMILES comes first, the peptide text is derived from it. The star is where a group is joined. Boc = CC(C)(C)OC(=O)*; OBn = c1ccc(CO*)cc1
Outcome codes: active, inactive

compound	class
CCOC(=O)/C(C#N)=C/c1[nH]c(C)c(C)c1C	inactive
Cc1cn(CCCCOC(=O)NC(CCCNC(=N)N)C(=O)O)c(=O)[nH]c1=O (stereo unspecified)	inactive
COC(=O)C1=C(OC(=O)/C(=C/c2ccc(Cl)cc2Cl)c2ccc(Cl)cc2Cl)C(C(=O)OC)[C@@]2(O)[C@@H](C(=O)OC)[C@H](C)C[C@@H]1[C@@H]2C(=O)OC (stereo partly specified)	inactive
C[C@H]1[C@H](C)CC[C@]2(C)CC[C@]3(C)C(=C[C@@H](O)[C@@H]4[C@@]5(C)[C@H](O)[C@@H](O)[C@H](O)C(C)(C)[C@@H]5CC[C@]43C)[C@H]12	inactive
CC(C)Cn1cnc2c(SCc3ccccn3)nc(N)nc21	inactive
O=C(CCl)Nc1ccc(C(=O)N/N=C/c2ccc(Cl)cc2)cc1	inactive
Cc1ccc2c(c1C)CC1(Cc3ccc(C)c(C)c3C1=O)C2=O (stereo unspecified)	inactive
Cc1c(Cl)ccc2c1NC(=O)C2(O)CC(=O)c1ccc(Cl)cc1 (stereo unspecified)	inactive
COc1cc([C@@H]2c3cc4c(cc3[C@@H](NCc3ccc(C#N)cc3)C3COC(=O)[C@@H]32)OCO4)cc(OC)c1O (stereo partly specified)	active
O=S(=O)(O)c1cc(/N=N/c2cc(S(=O)(=O)O)c3cccnc3c2O)ccc1/C=C/c1ccc(/N=N/c2cc(S(=O)(=O)O)c3cccnc3c2O)cc1S(=O)(=O)O	inactive
COc1ccc(OC)c(-c2cc(O)c3cc4c(cc3n2)OCO4)c1	inactive
O=C1c2cccc3cc([N+](=O)[O-])cc(c23)C(=O)N1O	inactive
O=C(NCCc1ccccc1)c1cc(/C=C/c2cc(O)ccc2O)ccc1O	inactive
CN(Cc1cnc2nc(N)nc(N)c2n1)c1ccc(C(=O)NC(CO)CCCO)cc1 (stereo unspecified)	inactive
CC(NC(=O)C(Cc1ccccc1)NC(=O)C(Cc1ccccc1)NC(=O)OC(C)(C)C)C(=O)OCc1ccccc1 (stereo not drawn) (Boc-Phe-Phe-Ala-OBn; configuration not given here)	inactive
COc1ccc2c(c1)CC[C@@H]1C2CC[C@]2(C)C(=O)N(C)C(=O)CC12 (stereo partly specified)	inactive
C=CC[C@H](C)CCC(=O)N1[C@H]2CC3CC[C@@]2(CS1(=O)=O)C3(C)C	inactive
CC1=C(C(=O)NNC(=O)c2ccccc2O)CC(C(=O)NNC(=O)c2ccccc2O)=C(C)N1	inactive
CN1CCN(C)C12C=c1ccccc1=CC21CC1	inactive
CCOc1ccc2nc(NC(=O)C(=O)C(c3cnc4ccccc4n3)[N+](=O)[O-])sc2c1 (stereo unspecified)	inactive
COc1cc(/C=C/c2ccc(OC)c(OC)c2)cc(OC)c1 [(E)-3,4,3',5'-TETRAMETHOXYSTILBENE]	inactive
CC(C)(C)c1nc2c(o1)/C(=N\c1ccccc1)c1ccccc1C2=O	inactive
O=C1C[C@H](c2ccccc2)C2(C(=O)c3ccccc3C2=O)[C@H](c2ccccc2)C1	inactive
NN=C(CC(O)(C(F)(F)Cl)C(F)(F)Cl)CC(O)(C(F)(F)Cl)C(F)(F)Cl	inactive
C[C@@H](NC(=O)[C@@H]1C[C@]1(C)COC(=O)c1cc([N+](=O)[O-])cc([N+](=O)[O-])c1)c1cccc2ccccc12	inactive
COc1ccc(C2(O)c3ccccc3C(=O)N(C)C2(O)c2ccc(OC)cc2)cc1 (stereo unspecified)	inactive
COc1cc(COC(=O)N2CCC2C(=O)O)c([N+](=O)[O-])cc1OC (stereo unspecified)	inactive
CCc1nnc(S)n1/N=C\c1ccc(-c2ccccc2[N+](=O)[O-])o1	inactive
O=c1c(Cl)cc2nc3ccccc3sc-2c1Cl	inactive
CCCCN(C)CC(C(C)=O)C(c1ccccc1)c1c(O)c2ccccc2oc1=O (stereo unspecified)	inactive
CC1(C)OCC(C2OC(=O)C(OCc3ccccc3)=C2OCc2ccccc2)O1 (stereo unspecified)	inactive
O=C1C(O)=C(Cl)C(=O)c2c(O)ccc(O)c21	inactive
CC1(C)O[C@@H](CP(c2ccccc2)c2ccccc2)[C@H](CP(c2ccccc2)c2ccccc2)O1	inactive
Cc1cc(C(=O)CBr)c(CN2C(=O)c3ccccc3C2=O)c(=O)n1C	inactive
Brc1cccc(/C=C/CN2CCN(CCOC(c3ccccc3)c3ccccc3)CC2)c1	inactive
C[C@]12CC[C@H](O)CC1=CC[C@@H]1C2CC[C@]2(C)c3n[nH]nc3CC12 (stereo partly specified)	inactive

====

tested on: SK-MEL-28; assay: NCI tumour cell line growth inhibition, 48 h
Active and inactive are the calls of the source. No stated cut-off is given here; in the data, active = GI50 up to about 1.1 µM and inactive = higher.
Outcome codes: active, inactive

compound	class
CC(=O)O[C@H]1C(=O)[C@@]2(C)[C@H]([C@H](OC(=O)c3ccccc3)[C@]3(O)C[C@H](OC(=O)[C@H](O)[C@@H](NC(=O)c4ccccc4)c4cccc(N(C)C)c4)C(C)=C1C3(C)C)[C@]1(OC(C)=O)CO[C@@H]1C[C@@H]2O	active
CN(C)/C=N/S(=O)(=O)c1nn2c(C=O)c(-c3ccc(-c4ccc([N+](=O)[O-])cc4)o3)nc2s1	inactive
CC1(C)C(=O)/C(=C/c2ccccc2)C(C)(C)C1(C)C	inactive
Cn1/c(=N\N=C(\CNCCO)[C@@H](O)[C@@H]2OC(c3ccccc3)OC[C@H]2O)sc2ccccc21 (stereo partly drawn)	inactive
CC(=O)OC1CCC2(C)C(CCC3C4CC=C(C5(C)OCCO5)C4(C)CCC32)C1 (stereo not drawn)	inactive
COc1ccc(C2(O)c3ccccc3C(=O)N(C)C2(O)c2ccc(OC)cc2)cc1 (stereo not drawn)	inactive
COc1ccc2nc(NC(=O)C(=O)NNC(=O)c3ccncc3)sc2c1	inactive
O=c1oc2ccccc2cc1-c1nc2ccccc2s1	inactive
